// data source = PubChem BioAssay AID504332

molecular target: Histone-lysine N-methyltransferase EHMT2 (Homo sapiens) (UniProt Q96KQ7); assay: qHTS Assay for Inhibitors of Histone Lysine Methyltransferase G9a; conditions: G9a H3K9 monomethylation, AlphaScreen, 2 h; series mostly up to 59 µM; note: % is set by controls: 0 for no effect and ±100 for the full control effect; nearly all actives have a fitted effect of over 75% in size
Sequence (Q96KQ7 913-1193 limits assumed): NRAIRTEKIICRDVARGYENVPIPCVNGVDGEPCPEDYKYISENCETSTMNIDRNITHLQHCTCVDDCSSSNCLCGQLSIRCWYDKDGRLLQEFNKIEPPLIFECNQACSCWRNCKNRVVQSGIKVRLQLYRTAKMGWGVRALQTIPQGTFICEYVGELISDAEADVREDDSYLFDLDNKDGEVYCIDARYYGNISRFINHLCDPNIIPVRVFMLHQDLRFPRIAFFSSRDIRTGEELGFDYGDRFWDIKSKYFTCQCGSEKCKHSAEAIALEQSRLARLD
Among all 350,000 compounds or so, about 31,000 (8.9%) were called active. Inconclusive results (about 15%) are left out. The sample as a whole holds a higher share of actives than the screen did.
Endpoint Name: activity, negative = inhibition

Example entries and their recorded answers appear below.
molecule=Cc1ccnc(NS(=O)(=O)c2ccc(NC(=O)c3oc4ccc(F)cc4c3C)cc2)n1 target_or_system="Histone-lysine N-methyltransferase EHMT2 (Homo sapiens) (UniProt Q96KQ7)" endpoint_name="activity, negative = inhibition" recorded_result="6.53% [at 0.501 µM] (inactive)"
molecule=O=C(CCc1nc(-c2ccccc2)no1)Nc1cccc(C(=O)NC2CC2)c1 target_or_system="Histone-lysine N-methyltransferase EHMT2 (Homo sapiens) (UniProt Q96KQ7)" endpoint_name="activity, negative = inhibition" recorded_result="-5.9% [at 12.7 µM] (inactive)"
molecule=O=C(c1cccc(F)c1)N1CCC2(CC1)CCN(c1ccccc1)CC2 target_or_system="Histone-lysine N-methyltransferase EHMT2 (Homo sapiens) (UniProt Q96KQ7)" endpoint_name="activity, negative = inhibition" recorded_result="-4.3% [at 12.7 µM] (inactive)"
molecule=CCN(CC)CCn1c2c(c(SCC(=O)Nc3nc4ccccc4s3)nc1=O)CCCC2 target_or_system="Histone-lysine N-methyltransferase EHMT2 (Homo sapiens) (UniProt Q96KQ7)" endpoint_name="activity, negative = inhibition" recorded_result="5.88% [at 0.501 µM] (inactive)"

Could you share which activity, negative = inhibition value was measured for CS(=O)(=O)Nc1ccccc1C(=O)OCC(=O)NC1CC1 ? 15.6% [at 12.7 µM] (inactive)

Could you share which activity, negative = inhibition value was measured for COc1ccc2sc(N(CCCN(C)C)C(=O)c3ccc(S(=O)(=O)N(C)C4CCCCC4)cc3)nc2c1 ? -7.7% [at 2.33 µM] (inactive)

Could you share which activity, negative = inhibition value was measured for O=C(CCc1nc2sc3c(c2c(=O)[nH]1)CCCC3)NCC(=O)Nc1ccccc1Br ? -4.82% [at 12.7 µM] (inactive)

Could you share which activity, negative = inhibition value was measured for COc1cccc(NC(=O)COC(=O)/C=C/c2ccco2)c1 ? 13.7% [at 2.33 µM] (inactive)

Could you share which activity, negative = inhibition value was measured for Cc1ccc(NC(=O)C2CC2c2ccccc2)cc1 (centres undefined) ? 18.3% [at 2.33 µM] (inactive)

Could you share which activity, negative = inhibition value was measured for CC1(C)CC(=O)C(C=NCCN2CCN(C(=S)Nc3cccc(Cl)c3)CC2)=C(O)C1 ? -2.18% [at 0.501 µM] (inactive)

Could you share which activity, negative = inhibition value was measured for CCC(C)CCN1CCN=C1N(C)C (centres undefined) ? 2.04% [at 2.33 µM] (inactive)

Could you share which activity, negative = inhibition value was measured for COc1ccc(C(CNC(=O)c2ccc(S(=O)(=O)Nc3ccccc3C)cc2)N2CCOCC2)cc1 (centres undefined) ? 19% [at 2.33 µM] (inactive)

Could you share which activity, negative = inhibition value was measured for Nc1nc(SCC(=O)Nc2ccc(Cl)c([N+](=O)[O-])c2)n[nH]1 ? -3.46% [at 12.7 µM] (inactive)

Could you share which activity, negative = inhibition value was measured for COc1cccc(C(=O)OCC(=O)c2[nH]c(C)c(C(C)=O)c2C)c1 ? -42.2% [at 12.7 µM] (inactive)

Could you share which activity, negative = inhibition value was measured for CCOC(=O)[C@H]1[C@H]2COc3ccc(OC)cc3[C@@H]2N2C(=O)c3ccc(F)cc3NC(=O)[C@@]12C ? 22.3% [at 2.33 µM] (inactive)
